# growth inhibition listing for each entry below
assay overview: inhibition of 3D7 malaria parasite growth – strain 3D7 (AID 2306);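 also: 0% = DMSO wells and 100% = chloroquine plus artemisinin control wells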
run parameters: P. falciparum 3D7 erythrocytic growth, LDH absorbance, 72 h; at 2 µM; active compounds read high
All answers are understood in %, so give the number only.

Some molecules with known growth inhibition results, for comparison:
# smiles repr, growth inhibition (%)
rows = [
    ("COC(=O)c1ccc(-c2ccc(-c3cccnc3)cc2C)cc1", 100),
    ("O=C(Nc1cccc(F)c1)NC1CCN(c2ccnc3cc(Cl)ccc23)CC1", 96),
    ("CCCCOC(=O)c1ccc(Nc2cc(C)nc3ccc(OC)cc23)cc1", 100),
    ("Cc1cc(NCC(c2ccccc2)c2ccccc2)nc(NCC2CCCCC2)n1", 100),
]

API: the following record is the query input.
For record `Cc1nc(N)nc(N)c1CCCOc1ccc(Br)cc1` the listed growth inhibition is 97

====

assay overview: inhibition of 3D7 malaria parasite growth – strain 3D7 (AID 2306);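 also: 0% = DMSO wells and 100% = chloroquine plus artemisinin control wells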
run parameters: P. falciparum 3D7 erythrocytic growth, LDH absorbance, 72 h; at 2 µM; active compounds read high
// growth inhibition lookup, one value per entry
Value expressed in %; do not type the unit.

The cases that follow already have their growth inhibition on record.
# molecule, quantity unit, growth inhibition
records = [
    ("CCc1c(C(=O)NC2CCC(N3CCC(c4ccccc4C)CC3)CC2)[nH]c2ccc(OC)cc12 (centres undefined)", "%", 101),
    ("O=C(/C=C/c1ccc(Cl)c(Cl)c1)NCCCCCN1CCCN(C(=O)Nc2ccc(Cl)c(C(F)(F)F)c2)CC1", "%", 102),
    ("Cc1ccccc1C1CCN(C2CCC(NC(=O)c3ccc(-c4ccccc4)s3)CC2)CC1 (centres undefined)", "%", 101),
]

# evaluate next
growth inhibition reading for `CCN(CC)CCNC(=O)c1ccc(NC(=O)c2cn(-c3ccccc3)nc2-c2cccs2)cc1` : 103

====

assay overview: antimalarial activity against Dd2 strain (AID 2302);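 also: 0% = DMSO untreated growth and 100% = chloroquine plus artemisinin killed control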
run parameters: P. falciparum Dd2 in RBCs, LDH growth readout, 72 h; at 2 µM
Calls of active or inactive are those of the source.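 The calls were made as follows: active = growth inhibition above 50% at the single 2 µM test dose, taken to imply half-maximal potency below 2 µM; inactive = the rest.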
Entry note: the call must match one of T = active, F = inactive

Answered cases to consult:
# compound, label value
records = [
    ("CC(C)(C)c1ccc(CNC(=O)c2cc(CNC3CCC(N)CC3)ccc2O)cc1 (stereo unspecified)", "F"),
    ("O=C(NCCCCN1CCN(c2cccc3c2CCCC3)CC1)c1ccc(NC(=O)c2ccc(Cl)cc2)cc1", "T"),
]

Which result was noted for this compound in the test: `Nc1nc(N)c2c(ccn2Cc2cc3c(cc2Cl)OCO3)n1`
F

Record lookup: outcome of this test for `O=C(c1ccc([N+](=O)[O-])o1)N1CCN(c2nc3c(F)cc(F)cc3s2)CC1` ?
T

Could you kindly confirm the outcome this assay logged for `Cc1nc2nc(N)nc(N)c2c(C)c1Cc1ccccc1Cl` ?
F

Short answer needed: outcome of this test for `O=C(Nc1ccc(Cl)cc1)Nc1cccc(CCNCc2ccccc2)c1` ?
F

====

target desc: L-lactate dehydrogenase (Plasmodium falciparum (isolate CDC / Honduras))
assay overview: PfLDH activity inhibition – cell lysate, 3D7 strain, counter-screen for P. falciparum growth inhibition project (AID 2304);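 also: 0% = vehicle and 100% = reference inhibitor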
run parameters: P. falciparum 3D7 crude extract, LDH APAD/NBT absorbance; at 2 µM; active compounds read high
quantity measured: inhibition (%)
Quick note: give the figure in %, leave out the unit.

# smiles repr, inhibition (%)
measured = [
    ("Cc1ccc(C2CCN(CCCCNC(=O)c3ccc(NC(=O)c4ccc(Cl)cc4)cc3)CC2)c(OCC2CC2)c1", 0),
    ("CCN1CCN(c2cc(C)c3cc(NC(=O)c4ccc(Br)o4)ccc3n2)CC1", -7),
    ("O=C(Nc1cccc(CN2CCCN(Cc3cccc(Cl)c3)CC2)c1)c1ccc(-c2ccccc2)cc1", 1),
]

Given the compound `Cc1ccc(O)cc1Nc1ccnc2cc(-c3nccs3)ccc12` and test system L-lactate dehydrogenase (Plasmodium falciparum (isolate CDC / Honduras)), the measured inhibition is 2

Lab entry: L-lactate dehydrogenase (Plasmodium falciparum (isolate CDC / Honduras)) assay, compound `COc1cc(C=CC(=O)N2CCC3(CC2)CC(=O)c2ccccc2O3)cc(OC)c1OC` , inhibition = -1

inhibition on L-lactate dehydrogenase (Plasmodium falciparum (isolate CDC / Honduras)) for `CCN(CCCN1CCCCC1)c1cc(C)nc(Nc2ccc(C)c(C)c2)n1` is -3

Response field inhibition (L-lactate dehydrogenase (Plasmodium falciparum (isolate CDC / Honduras))) for item `CC1(C)N=C(NC(=O)c2ccc([N+](=O)[O-])cc2)N=C(N)N1OCc1ccc2ccccc2c1` : -8

Per the reported L-lactate dehydrogenase (Plasmodium falciparum (isolate CDC / Honduras)) data, `COc1c(CCNCCCCNCCc2cc(Cl)c3ccccc3c2OC)cc(Cl)c2ccccc12` has inhibition of -7

The observed inhibition for `NC(=O)c1cccc(CNC(=O)NC[C@H]2CN(Cc3ccc(Cl)c(Cl)c3)CCO2)c1` when tested with L-lactate dehydrogenase (Plasmodium falciparum (isolate CDC / Honduras)) stands at 1

The measured inhibition that `COc1c(OC)c(OC)c2ccccc2c1CNCCCCCCNCc1c(OC)c(OC)c(OC)c2ccccc12` showed for L-lactate dehydrogenase (Plasmodium falciparum (isolate CDC / Honduras)) is 3

====

Collected inhibition values appear next to each entry.
target desc: L-lactate dehydrogenase (Plasmodium falciparum (isolate CDC / Honduras))
assay overview: PfLDH activity inhibition – cell lysate, 3D7 strain, counter-screen for P. falciparum growth inhibition project (AID 2304);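 also: 0% = vehicle and 100% = reference inhibitor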
run parameters: P. falciparum 3D7 crude extract, LDH APAD/NBT absorbance; at 2 µM; active compounds read high
Give a bare numeral; the unit % is implied.

# compound, target desc, value measured
rows = [
    ("Cc1cc(NC(=O)Nc2ccc3nc(C)oc3c2)c2cc(Cl)ccc2n1", "L-lactate dehydrogenase (Plasmodium falciparum (isolate CDC / Honduras))", -2),
    ("c1ccc(-c2ccc3c(Nc4ccc5[nH]ccc5c4)ccnc3c2)nc1", "L-lactate dehydrogenase (Plasmodium falciparum (isolate CDC / Honduras))", -7),
    ("O=C(Nc1ccc(Cl)cc1)c1ccc(CN2CCCN(Cc3ccc(F)cc3)CC2)cc1", "L-lactate dehydrogenase (Plasmodium falciparum (isolate CDC / Honduras))", 6),
    ("COCCCNC(=S)NN=C(C)c1ccccn1", "L-lactate dehydrogenase (Plasmodium falciparum (isolate CDC / Honduras))", 3),
]

# inhibition measured on L-lactate dehydrogenase (Plasmodium falciparum (isolate CDC / Honduras)) for item CCCC(C)N(Cc1ccc(C(C)(C)C)cc1)C(=O)c1cccc(OC)c1 (stereo not drawn) = 1

L-lactate dehydrogenase (Plasmodium falciparum (isolate CDC / Honduras)) inhibition of `c1ccc(Oc2ccc(Nc3ccnc4ccc(-c5ccco5)cc34)cc2)cc1` is -1

====

target desc: L-lactate dehydrogenase (Plasmodium falciparum (isolate CDC / Honduras))
assay overview: PfLDH activity inhibition – cell lysate, 3D7 strain, counter-screen for P. falciparum growth inhibition project (AID 2304);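 also: 0% = vehicle and 100% = reference inhibitor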
run parameters: P. falciparum 3D7 crude extract, LDH APAD/NBT absorbance; at 2 µM; active compounds read high
quantity measured: inhibition (%)
Form entry: value (%) — number only.

Take a look at these entries with their results.
# compound, inhibition / %
records = [
    ("Cc1[nH]c(C)c(-c2ccc(-c3ccccc3F)nc2)c(=O)c1Br", -3),
    ("Cc1noc(C)c1CN1CCCN(c2ccc3c(c2)CCN(Cc2ccc(-c4ncc[nH]4)cc2)CC3)CC1", 2),
    ("CS(=O)(=O)CCNCc1cccc(-c2cc3nccc(Nc4ccc(Oc5ccccc5)cc4)c3cc2Cl)c1", -3),
]

Form: compound = `Cc1[nH]c(C)c(-c2ccc(Oc3ccc(O)cc3)cc2)c(=O)c1Cl` ; inhibition = -3

Entry `Cc1cc(NCC(c2ccccc2)c2ccccc2)nc(NCC2CCCCC2)n1` , inhibition reported as 3

====

assay overview: antimalarial activity against Dd2 strain (AID 2302);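 also: 0% = DMSO untreated growth and 100% = chloroquine plus artemisinin killed control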
run parameters: P. falciparum Dd2 in RBCs, LDH growth readout, 72 h; at 2 µM
Active and inactive are the calls of the source.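 The calls were made as follows: active = growth inhibition above 50% at the single 2 µM test dose, taken to imply half-maximal potency below 2 µM; inactive = the rest.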
Output constraint: value belongs to Yes = active, No = inactive

# compound, label value
records = [
    ("COc1c(C2CCN(CCCCNC(=O)c3ccc(-c4ccc(C#N)cc4)c(O)c3)CC2)ccc2c1CCCC2", "Yes"),
    ("CC(C)(C)COc1ccc2c(N)n[nH]c2c1", "No"),
    ("COc1cc2nc(NCCc3ccccc3)nc(N(C)Cc3ccccc3)c2cc1OC", "Yes"),
    ("COc1cc(CCCOc2c(N)nc(N)nc2N)cc(OC)c1OC", "No"),
]

Hi, sorry to bother you, what did the test record for `O=C(Cn1c(SCc2cccc(F)c2F)cc(=O)c2ccccc21)N(Cc1ccc(-c2ccc(C(F)(F)F)cc2)cc1)C1CCN(CCO)CC1` ?
Yes

// outcome(item) with item = `COc1ccc(NC(=O)c2cn(-c3ccc(C(C)(C)C)cc3)nc2C)cc1N1CCN(C)CC1`
Yes

Write down the call the test reported for this compound. Item: `CS(=O)(=O)c1ccc(CCNCc2ccc(-c3ccc(CNC4CCN(Cc5ccccc5)CC4)cc3)nc2)cc1`
Yes

Name the outcome recorded for `O=S(=O)(c1ccc(Cl)cc1Cl)N1CCCCC(c2ccc(C(F)(F)F)cc2)=N1` in the assay.
Yes

Kindly provide the recorded test outcome for the following compound: `COc1nc2c(N3CCN(CCNCc4ccc5c(n4)NC(=O)CS5)CC3)ccnc2cc1F`
Yes

Would you mind telling me which call this test gave `CCN(CCCN1CCCCC1)c1cc(C)nc(Nc2ccc(Cl)cc2)n1` ?
Yes

Just curious, what result did `Cc1cccc2[nH]c(-c3ccc(-c4ccc(CNCc5ccccc5)cc4)cc3)nc12` get here?
Yes

Can you look up the reported call for `O=C(CSc1nccn1C1CCCC1)Nc1cc(C(F)(F)F)ccc1Cl` for me?
Yes

Test call for this compound, please: `CCc1c(CCNCCCCCCNCCc2ccc(OC)c(OC)c2C)ccc(OC)c1OC`
No

Outcome logged for `COc1ccc2c(Nc3ccc(N4CCN(C)CC4)cc3)cc(C)nc2c1` in this assay:
No

For `COc1ccc(NS(=O)(=O)c2cc(NC(=O)Cn3ccccc3=O)ccc2N2CCCCC2)cc1` , what call appears in the results of this test?
Yes

Which result was noted for this compound in the test: `Cc1cc(C)n2nc(C(=O)Nc3cc(C(F)(F)F)ccc3N3CCOCC3)nc2n1`
Yes

Answer briefly: the call reported for `Nc1cccc(CNCc2ccc(-c3cccc(-c4nc5ccc(F)cc5[nH]4)c3)cc2)c1` in this assay.
Yes

Can you look up the reported call for `Nc1ncc(OC2CCCCC2)c(N)n1` for me?
No

Given `NCCCNc1ccnc2cc(Cl)ccc12` , state the outcome it received in this test.
No

Field: outcome | Entry: `COc1ccc2nc3cc(Cl)ccc3c(NCCN3CCN(C)CC3)c2c1`
Yes

Test call, this compound: `NC(N)=NN=CC(=O)Nc1cccc(C(F)(F)F)c1`
No

What outcome does the record of this test show for `COc1ccc(CNC2CCN(C)CC2)cc1-c1ccc(S(=O)(=O)NC2CCC2)cc1` ?
Yes

I would be grateful if you could indicate the recorded call for `CC(C)Oc1cc2c(cc1NS(=O)(=O)c1ccc(-c3ccc(Cl)cc3)cc1)CCN(C)CC2` .
Yes

Please state the recorded outcome for this compound: `Cc1cc(N2CC=CCC2)nc(/N=C(\N)Nc2ccc(Br)cc2)n1`
No

Short answer needed: outcome of this test for `CC(C)C(C(=O)n1ncc2c3c(N)nc(N)nc3ccc21)C(C)C` ?
No
